Origin of the recorded values: patent US20250019377A1

# Study target: K-Ras WT (Homo sapiens)
# Sequence (P01116 1-169 isoform P01116-2): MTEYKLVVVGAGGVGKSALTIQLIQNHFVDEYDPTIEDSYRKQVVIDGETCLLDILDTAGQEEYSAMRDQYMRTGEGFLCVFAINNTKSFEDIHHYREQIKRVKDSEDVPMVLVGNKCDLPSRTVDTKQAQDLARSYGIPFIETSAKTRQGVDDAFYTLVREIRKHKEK
# Experiment description: biochemical
Decide using IC50 alone. Strictly below 200 nM: Met. Equal to or above 200 nM: Not met.

# count of solved cases: 2
C#Cc1c(F)ccc2cc(O)cc(-c3ncc4c(N5CCCO[C@@H](C)C5)nc(OC[C@@]56CCCN5C[C@H](F)C6)nc4c3F)c12 (single isomer, unassigned): Not met
C#Cc1c(F)ccc2cc(O)cc(-c3ncc4c(N5CCOC[C@@H](C)C5)nc(OC[C@@]56CCCN5C[C@H](F)C6)nc4c3F)c12 (single isomer, unassigned) [Compound 13A]: Not met

Hello, is IC50 of the following molecule strictly smaller than 200 nM? C#Cc1c(F)ccc2cc(O)cc(-c3ncc4c(N5CCC6CC5CO6)nc(OC[C@@]56CCCN5C[C@H](F)C6)nc4c3F)c12 (some centres unmarked)
Not met

Confirm or reject: IC50 of C#Cc1c(F)ccc2cc(O)cc(-c3c(C(F)(F)F)cc4c(N5CCCOCC5)nc(OC[C@@]56CCCN5C[C@H](F)C6)nc4c3F)c12 lies strictly below 200 nM
Not met

Here's an entry: C#Cc1c(F)ccc2cc(O)cc(-c3ncc4c(N5CCOC[C@@H](O)C5)nc(OC[C@@]56CCCN5C[C@H](F)C6)nc4c3F)c12 (single isomer, unassigned) [Compound 46B] . Is its IC50 below 200 nM?
Met

Here's an entry: C#Cc1c(F)ccc2cc(O)cc(-c3ncc4c(N5CC6COC(C6)C5)nc(OC[C@@]56CCCN5C[C@H](F)C6)nc4c3F)c12 (single isomer, unassigned) [Compound 84A] . Is its IC50 below 200 nM?
Not met

Just wondering, is IC50 of C#Cc1c(F)ccc2cc(O)cc(-c3ncc4c(N5CC(C)COCC5C)nc(OC[C@@]56CCCN5C[C@H](F)C6)nc4c3F)c12 (some centres unmarked) below 200 nM?
Not met
